B1: SPSB1 (parent)
chain: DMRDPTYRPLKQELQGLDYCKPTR

- Variants of: B1
- Test Method Notes: protein stability index of a GFP-peptide fusion (GPS, HEK-293T) (PSI 1-6); higher = more stable;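 also: lentivirally expressed fusions sorted by FACS into six bins by GFP to DsRed ratio, PSI derived from sequencing read proportions per bin multiplied by bin number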
- Condition Details: c terminus: a fixed tail appended

- Mutant Name: "D18M"
  protein stability index: 2.94
- Mutant Name: "R3H"
  protein stability index: 3.08
- Mutant Name: "D4C"
  protein stability index: 2.96
